metric: melting point

> print(dat)
                                smiles.text         metric        reading
1  CCCCCCCC[Si](C)(C)O[C@H]1[C@H](C#N)[C@H](n2ccc(N)nc2=O)O[C@@H]1CO  melting point  153 to 154 °C
2  CC[Si](CC)(O[C@H]1[C@H](C#N)[C@H](n2ccc(N)nc2=O)O[C@@H]1CO)C(C)C  melting point  161 to 163 °C
3  CC(C)C(C)(C)[Si](C)(C)O[C@H]1[C@@H](C#N)[C@H](n2ccc(N)nc2=O)O[C@@H]1CO  melting point  179 to 182 °C

----------
Catalogue of inhibition in vivo values
- System: Human large intestine cancer cell strain KM20C
- measurement_description: Anti-tumor test using nude mouse subcutaneous implantation system with peroral administration of CNDAC compound
- Format: in vivo, BALB/cA Jcl-nu mice
- measurement_context: Mus musculus, sc, 696 h; peroral once a day for 14 days, dose equivalent by mole to 18 mg/kg/day of CNDAC; day 29 after grouping; KM20C subcutaneous implant; read-out: IR (%) tumor growth inhibition rate
metric: inhibition in vivo (%)

> print(dat)
                                smiles.text              metric  reading
1  CC(C)C(C)(C)[Si](C)(C)OC[C@H]1O[C@@H](n2ccc(N)nc2=O)[C@@H](C#N)[C@@H]1O  inhibition in vivo       82
2  CC(C)(C)[Si](C)(C)O[C@H]1[C@H](C#N)[C@H](n2ccc(N)nc2=O)O[C@@H]1CO.O=C(O)C(F)(F)F  inhibition in vivo       83
3  CC(C)[Si](OC[C@H]1O[C@@H](n2ccc(N)nc2=O)[C@@H](C#N)[C@@H]1O)(C(C)C)C(C)C  inhibition in vivo       65
4  CC(C)C(C)(C)[Si](C)(C)O[C@H]1[C@H](C#N)[C@H](n2ccc(N)nc2=O)O[C@@H]1CO  inhibition in vivo       89
5  CC(C)C[Si](CC(C)C)(CC(C)C)OC[C@H]1O[C@@H](n2ccc(N)nc2=O)[C@@H](C#N)[C@@H]1O  inhibition in vivo       79

----------
- System: Human large intestine cancer cell strain KM20C
- measurement_description: Anti-tumor test using nude mouse subcutaneous implantation system with peroral administration of CNDAC compound
- Format: in vivo, BALB/cA Jcl-nu mice
- measurement_context: Mus musculus, sc, 696 h; peroral once a day for 14 days, dose equivalent by mole to 18 mg/kg/day of CNDAC; day 29 after grouping; KM20C subcutaneous implant; read-out: IR (%) tumor growth inhibition rate
Please note: true applies when inhibition in vivo is 80% or greater, and false applies otherwise.

> print(dat)
                                smiles.text                       experimental.target  label.value
1  CC(C)(C)[Si](C)(C)OC[C@H]1O[C@@H](n2ccc(N)nc2=O)[C@@H](C#N)[C@@H]1O  Human large intestine cancer cell strain KM20C        false
2  CC(C)[C@H](N)C(=O)OC[C@H]1O[C@@H](n2ccc(N)nc2=O)[C@@H](C#N)[C@@H]1O[Si](C)(C)C(C)(C)C  Human large intestine cancer cell strain KM20C         true
3  CC[Si](CC)(O[C@H]1[C@H](C#N)[C@H](n2ccc(N)nc2=O)O[C@@H]1CO)C(C)C  Human large intestine cancer cell strain KM20C         true
4  CC(C)[Si](O[C@H]1[C@H](C#N)[C@H](n2ccc(N)nc2=O)O[C@@H]1CO)(C(C)C)C(C)C  Human large intestine cancer cell strain KM20C         true
5  CC(C)[C@H](N)C(=O)OC[C@H]1O[C@@H](n2ccc(N)nc2=O)[C@@H](C#N)[C@@H]1O[Si](C)(C)C(C)(C)C(C)C  Human large intestine cancer cell strain KM20C         true
6  CCCCCCCC[Si](C)(C)OC[C@H]1O[C@@H](n2ccc(N)nc2=O)[C@@H](C#N)[C@@H]1O  Human large intestine cancer cell strain KM20C        false
7  CC(C)(C)[Si]1(C(C)(C)C)OC[C@H]2O[C@@H](n3ccc(N)nc3=O)[C@@H](C#N)[C@@H]2O1  Human large intestine cancer cell strain KM20C        false
